Molecular target: IRAK4 (Homo sapiens, UniProt Q9NWZ3)
Sequence (Q9NWZ3 1-460): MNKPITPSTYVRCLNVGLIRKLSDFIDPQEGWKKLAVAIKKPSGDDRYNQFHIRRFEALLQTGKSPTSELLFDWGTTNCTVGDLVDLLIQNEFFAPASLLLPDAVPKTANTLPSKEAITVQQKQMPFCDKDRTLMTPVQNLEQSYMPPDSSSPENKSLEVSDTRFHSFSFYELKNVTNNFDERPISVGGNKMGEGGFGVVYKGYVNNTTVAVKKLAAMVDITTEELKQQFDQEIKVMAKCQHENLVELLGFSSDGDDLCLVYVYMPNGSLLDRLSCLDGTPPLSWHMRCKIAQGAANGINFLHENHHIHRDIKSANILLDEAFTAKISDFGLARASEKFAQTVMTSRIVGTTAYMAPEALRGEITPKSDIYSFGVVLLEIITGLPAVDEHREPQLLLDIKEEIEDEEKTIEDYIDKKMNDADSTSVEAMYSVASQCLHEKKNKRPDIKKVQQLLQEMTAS
Experiment: WB detection of proteolysis (Western Blot, THP-1 cells)
Format: cell-based
Conditions: Western Blot, THP-1 cells, 24 h; read-out: Dmax
Counter-ions that a name gives are not always drawn.
Reported Dmax values follow for various compounds

Compound: C[C@H]1CC2(CCN(c3cccc4c3n(C)c(=O)n4C3CCC(=O)NC3=O)CC2)CN1C[C@H]1CC[C@H](n2cc(-n3cc(-c4cnn5ccc(N6CCC[C@H](O)C6)nc45)nn3)c(C(F)F)n2)CC1 (stereo partly drawn)
Dmax: > 70%

Compound: Cn1c(=O)n(C2CCC(=O)NC2=O)c2cccc(N3CCN(C[C@H]4CC[C@H](n5cc(-n6cc(-c7cnn8ccc(N9CCC[C@@H](O)C9)nc78)nn6)c(C(F)F)n5)CC4)CC3)c21 (stereo partly drawn)
Dmax: > 70%

Compound: C[C@H]1CN(c2cccc3c2n(C)c(=O)n3C2CCC(=O)NC2=O)CCN1C[C@H]1CC[C@H](n2cc(-n3cc(-c4cnn5ccc(N6CCC[C@H](N)C6)nc45)nn3)c(C(F)F)n2)CC1 (stereo partly drawn)
Dmax: 60 to 70%

Compound: Cn1c(=O)n(C2CCC(=O)NC2=O)c2cccc(N3CCN(C4CCN(C[C@H]5CC[C@H](n6cc(-n7cc(-c8cnn9ccc(N%10CCC[C@H](O)C%10)nc89)nn7)c(C(F)F)n6)CC5)CC4)CC3)c21 (stereo partly drawn)
Dmax: > 70%

Compound: Cn1c(=O)n(C2CCC(=O)NC2=O)c2cccc(N3CC4(CCN(C[C@H]5CC[C@H](n6cc(-n7cc(-c8ccc9cc(C(N)=O)cnn89)nn7)c(C(F)F)n6)CC5)CC4)C3)c21 (stereo partly drawn)
Dmax: 60 to 70%

Compound: Cn1c(=O)n(C2CCC(=O)NC2=O)c2cccc(N3CCC4(CCN(C[C@H]5CC[C@H](n6cc(-n7cc(-c8cnn9ccc(N%10CCC(O)CC%10)nc89)nn7)c(C(F)F)n6)CC5)C4)CC3)c21 (stereo partly drawn)
Dmax: > 70%

Compound: Cn1c(=O)n(C2CCC(=O)NC2=O)c2cccc(N3CCC(N4CCN(C[C@H]5CC[C@H](n6cc(-n7cc(-c8cnn9ccc(N[C@H]%10CCCC[C@H]%10O)nc89)nn7)c(C(F)F)n6)CC5)CC4)CC3)c21 (stereo partly drawn)
Dmax: > 70%

Compound: Cn1c(=O)n(C2CCC(=O)NC2=O)c2cccc(N3CCC(N4CCN(C[C@H]5CC[C@H](n6cc(-n7cc(-c8cnn9ccc(N%10CCO[C@@H](CO)C%10)nc89)nn7)c(C(F)F)n6)CC5)CC4)CC3)c21 (stereo partly drawn)
Dmax: > 70%

Compound: Cn1c(=O)n(C2CCC(=O)NC2=O)c2cccc(N3CCC(N4CCN(C[C@H]5CC[C@H](n6cc(-n7cc(-n8ccc9cc(C(N)=O)cnc98)nn7)c(C(F)F)n6)CC5)CC4)CC3)c21 (stereo partly drawn)
Dmax: > 70%

Compound: Cn1c(=O)n(C2CCC(=O)NC2=O)c2cccc(N3CCC4(CCN(C[C@H]5CC[C@H](n6cc(-n7cc(-c8cnn9ccc(N%10CCC[C@H](N)C%10)nc89)nn7)c(C(F)F)n6)CC5)CC4)CC3)c21 (stereo partly drawn)
Dmax: > 70%

Compound: Cn1c(=O)n(C2CCC(=O)NC2=O)c2cccc(N3CCC(N4CCN(C[C@H]5CC[C@H](n6cc(-n7cc(-c8cnn9ccc(N%10CCC[C@H](O)C%10)nc89)nn7)c(C(F)F)n6)CC5)CC4)[C@@H](F)C3)c21 (stereo partly drawn)
Dmax: > 70%

Compound: Cn1c(=O)n(C2CCC(=O)NC2=O)c2cccc(N3CCC(CN4CCC5(CCC(n6cc(-n7cc(-c8ccc9cc(C(N)=O)cnn89)nn7)c(C(F)F)n6)CC5)CC4)CC3)c21 (stereo not drawn)
Dmax: > 70%

Compound: Cn1c(=O)n(C2CCC(=O)NC2=O)c2cccc(N3CCN(C[C@H]4CC[C@H](n5cc(-n6cc(-c7cnn8ccc(N9CCC[C@H](N)C9)nc78)nn6)c(C(F)F)n5)CC4)CC3)c21 (stereo partly drawn)
Dmax: > 70%

Compound: Cn1c(=O)n(C2CCC(=O)NC2=O)c2cccc(N3CCC(CN4CCC5(CCC(n6cc(-n7cc(-c8cnn9ccc(N%10CCC[C@H](O)C%10)nc89)nn7)c(C(F)F)n6)CC5)CC4)CC3)c21 (stereo partly drawn)
Dmax: > 70%

Compound: Cn1c(=O)n(C2CCC(=O)NC2=O)c2cccc(N3CCC4(CCN(C[C@H]5CC[C@H](n6cc(-n7cc(-c8cnn9ccc(N%10CCC[C@H](N)C%10)nc89)nn7)c(C(F)F)n6)CC5)CC4)C3)c21 (stereo partly drawn)
Dmax: 60 to 70%

Compound: Cn1c(=O)n(C2CCC(=O)NC2=O)c2cccc(N3CCN(C[C@H]4CC[C@H](n5cc(-n6cc(-c7cnn8ccc(N9CCNCC9)nc78)nn6)c(C(F)F)n5)CC4)CC3)c21 (stereo partly drawn) [Example 132, dihydrochloride]
Dmax: 60 to 70%

Compound: Cn1c(=O)n(C2CCC(=O)NC2=O)c2cccc(N3CCCN(C[C@H]4CC[C@H](n5cc(-n6cc(-c7ccc8cc(C(N)=O)cnn78)nn6)c(C(F)F)n5)CC4)CC3)c21 (relative stereo)
Dmax: < 60%

Compound: Cn1c(=O)n(C2CCC(=O)NC2=O)c2cccc(CN3CC4(CCC(CN[C@H]5CC[C@H](n6cc(-n7cc(-c8ccc9cc(C(N)=O)cnn89)nn7)c(C(F)F)n6)CC5)CC4)C3)c21 (stereo partly drawn)
Dmax: > 70%
